Listing of entries alongside the reported viability, T/C.
test system: SW 1271 complex spheroids, viability; assay: Anticancer human tumor SW 1271 cell line growth inhibition [LSD1]; conditions: second compound 0.316 µM; first compound 0.01 µM; stronger effect = lower value;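 also: spheroids exposed to agents for 7 days before luminescence read; 100% = DMSO vehicle control viability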
VALUE_TYPE: viability, T/C (%)

1) CC(C)CC(NC(=O)C(Cc1ccccc1)NC(=O)c1cnccn1)B(O)O (centres undefined) + NC1CC1c1ccc(-c2cccc(O)c2)cc1    1.18
2) O=C(C=Cn1cnc(-c2cc(C(F)(F)F)cc(C(F)(F)F)c2)n1)NNc1cnccn1 + NC1CC1c1ccc(-c2cccc(O)c2)cc1    74.1
3) CC[C@@]1(O)C(=O)OCc2c1cc1n(c2=O)Cc2cc3c(CN(C)C)c(O)ccc3nc2-1 + NC1CC1c1ccc(-c2cccc(O)c2)cc1    63.6
4) Cn1ncnc1C1c2n[nH]c(=O)c3cc(F)cc(c23)NC1c1ccc(F)cc1 (centres undefined) + NC1CC1c1ccc(-c2cccc(O)c2)cc1    68.9
5) CC(C)CC(NC(=O)CNC(=O)c1cc(Cl)ccc1Cl)B1OC(=O)CC(CC(=O)O)(C(=O)O)O1 (centres undefined) + NC1CCC(NC2CC2c2ccccc2)CC1    5.75
6) COc1cc(Nc2ncc3c(n2)-c2ccc(Cl)cc2C(c2c(F)cccc2OC)=NC3)ccc1C(=O)O + NC1CCC(NC2CC2c2ccccc2)CC1    80.3
7) CC1COCCN1c1cc(-c2ccnn2C)c2ccnc(-c3ccn[nH]3)c2n1 (centres undefined) + NC1CCC(NC2CC2c2ccccc2)CC1    71.2
8) Nc1ncn(C2CC(O)C(CO)O2)c(=O)n1 (centres undefined) + NC1CC1c1ccc(-c2cccc(O)c2)cc1    73.2
9) CC(C)CC(NC(=O)CNC(=O)c1cc(Cl)ccc1Cl)B1OC(=O)CC(CC(=O)O)(C(=O)O)O1 (centres undefined) + NC1CC1c1ccc(-c2cccc(O)c2)cc1    6.64
